Below is a list of entries, each paired with its recorded Mean relative activity value.
system: K562 CRISPRi cells; assay: Constant region variant library pooled growth screen, K562; type: cell-based, human; details: sgRNA constant region variants; activity relative to the original, un-modified constant region cr995
// no unit, no text: just the number

cr030 (nucleic acid, listed as DNA, chemistry not fully specified) guide: GCTTTAGAGCTAAGCTGGAAACAGCATAGCAAGTTTAAATAAGGCTAGTCCGTTATCAACTTGAAAAAGTGGCACCGAGTCGGTGCT    0.02089
cr179 (nucleic acid, listed as DNA, chemistry not fully specified) guide: GTTTAAGAGCTAAGCTGGAAACAGCATAGCAAGGTTAAATAAGGCTAGTCCGTTATCAACTTGAAAAAGTGGCACTGAGTCAGTGCT    −0.004493
cr109 (nucleic acid, listed as DNA, chemistry not fully specified) guide: GTTTAAGAGCTAAGCTGGAAACAGCATAGCAAGTTTAAATAAGGCTAGTCCGTTATCAACAAGAAATTGTGGCACCGAGTCGGTGCT    1.031
cr840 (nucleic acid, listed as DNA, chemistry not fully specified) guide: GTTTAAGAGCTAAGCTGGAAACAGCATAGCAAGTTTAAATAAGGCTAGTCCGTTATCAACTTGAGAAAGTAGCACCGAGTCGGTGCT    0.6688

Query block: // Mean relative activity lookup, key: cr984 (nucleic acid, listed as DNA, chemistry not fully specified) guide: GTTTAAGAGCTAAGCTGGAAACAGCATAGCAAGTTTAAATAAGGCTAGTCCGTTATCAACTTGAAAAAGTGGCACCGAGTCGGTGGT
Result block: 0.8858

Query block: // Mean relative activity lookup, key: cr106 (nucleic acid, listed as DNA, chemistry not fully specified) guide: GTTTAAGAGCTAAGCTGGAAACAGCATAGCAAGGTTAAATAAGTCTAGTACGTTATCAACTTGAAAAAGTGGCACCGAGTCGGTGCT
Result block: 0.001355

Query block: // Mean relative activity lookup, key: cr892 (nucleic acid, listed as DNA, chemistry not fully specified) guide: GTTTAAGAGCTAAGCTGGAAACAGCATAGCAAGTTTAAATAAGGCTAGTCCGTTATCAACGTGAAAACGTGGCGACGAGTCGTCGCT
Result block: 1.041

Query block: // Mean relative activity lookup, key: cr985 (nucleic acid, listed as DNA, chemistry not fully specified) guide: GTTTAAGAGCTAAGCTGGAAACAGCATAGCAAGTTTAAATAAGGCTAGTCCTTTATCAACTTGAAAAAGTGGCACCGAGTCGGTGCT
Result block: 0.07562
